# tested system: CGRP antigen
# method: cell-based or functional assay
quantity: relative activity (%) vs Ref(TEVA)
Dear colleague, please return just the value in %, with no unit written.

Here are 2 binders together with their reported answers.
| binder | endpoint unit | assay result |
| --- | --- | --- |
| hu151 (antibody, V domains shown, 3E5 HC-1/1F5 LC1-4) VH: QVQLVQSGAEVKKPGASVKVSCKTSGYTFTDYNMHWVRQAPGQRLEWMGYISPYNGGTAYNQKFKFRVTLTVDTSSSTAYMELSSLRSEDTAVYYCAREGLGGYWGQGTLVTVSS VL: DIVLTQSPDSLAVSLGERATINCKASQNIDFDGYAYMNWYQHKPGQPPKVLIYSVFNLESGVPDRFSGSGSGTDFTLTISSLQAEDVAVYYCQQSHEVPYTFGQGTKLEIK | % | 48 |
| hu167 (antibody, V domains shown, 3E5 HC-2/3E5 LC-1) VH: QVQLVQSGAEVKKPGASVKVSCKASGYTFTDYNMHWVRQAPGQRLEWMGYISPYNGGTAYNQKFKFRVTLTVDTSSSTAYMELSSLRSEDTAVYYCAREGLGGYWGQGTLVTVSS VL: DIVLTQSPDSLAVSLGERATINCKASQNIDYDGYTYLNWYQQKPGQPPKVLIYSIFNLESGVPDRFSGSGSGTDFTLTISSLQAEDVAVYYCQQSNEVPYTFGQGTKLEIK | % | 26 |

Lab note: hu77 (antibody, V domains shown, 1F5 HC-4/3H10 LC2-1) VH: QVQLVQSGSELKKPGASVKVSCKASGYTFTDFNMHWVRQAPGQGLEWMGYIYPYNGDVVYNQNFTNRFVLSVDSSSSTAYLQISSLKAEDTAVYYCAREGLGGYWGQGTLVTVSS VL: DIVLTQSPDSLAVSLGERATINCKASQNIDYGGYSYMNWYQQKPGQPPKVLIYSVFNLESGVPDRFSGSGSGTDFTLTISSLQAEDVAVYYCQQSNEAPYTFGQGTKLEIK gave relative activity (%) vs Ref(TEVA) of 55

For hu76 (antibody, V domains shown, 1F5 HC-4/3E5 LC-1) VH: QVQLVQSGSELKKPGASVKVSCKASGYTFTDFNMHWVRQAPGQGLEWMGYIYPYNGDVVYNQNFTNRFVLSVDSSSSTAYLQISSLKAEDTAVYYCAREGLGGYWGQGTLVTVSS VL: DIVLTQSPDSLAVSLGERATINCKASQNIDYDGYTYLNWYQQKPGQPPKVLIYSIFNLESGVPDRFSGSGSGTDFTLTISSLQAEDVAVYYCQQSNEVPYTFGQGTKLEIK the binder record lists relative activity (%) vs Ref(TEVA) as 66

What the record says about hu71 (antibody, V domains shown, 1F5 HC-4/1F5 LC1-2) VH: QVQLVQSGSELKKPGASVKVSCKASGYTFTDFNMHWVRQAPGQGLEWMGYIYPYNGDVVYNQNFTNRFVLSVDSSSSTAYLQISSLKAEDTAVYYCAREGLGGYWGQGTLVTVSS VL: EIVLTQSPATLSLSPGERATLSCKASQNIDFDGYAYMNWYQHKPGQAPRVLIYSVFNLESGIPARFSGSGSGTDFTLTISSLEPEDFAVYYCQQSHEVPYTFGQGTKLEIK : relative activity (%) vs Ref(TEVA) is 77
